Numbers sourced from PubChem BioAssay AID2685.

experiment: qHTS Assay for Lipid Storage Modulators in Drosophila S3 Cells; conditions: BODIPY lipid droplet fluorescence, 18-24 h, cells fed with added oleic acid; series mostly up to 46.1 µM
The whole screen tested about 320,000 compounds, of which about 2,100 (0.66%) were called active. Roughly 53% stayed inconclusive and do not appear here. Calls come from the whole dose curve; as a rule, active = well fitted inhibition curve with a large enough effect in the signal ratio, with a control signal flat (not every such curve was filed as active); inconclusive = small, poorly fitted or top-dose-only effect, or effect the other way, or a change in a side signal; inactive = flat fitted curve, though single readings scatter; the % refers to the signal ratio. This is one part of a sample in which actives are shown more often than they occur.
Outcome codes: active, inactive

[[record]]
compound = "Cc1ccccc1CN(C)C(C)C(=O)NCc1ccccc1 (stereo not drawn)"
assigned_category = "inactive"

[[record]]
compound = "CCOc1ccc(S(=O)(=O)NCCc2cn3ccccc3n2)cc1"
assigned_category = "inactive"

[[record]]
compound = "COc1cc(NC(=O)c2ccc3nsnc3c2)cc(OC)c1OC"
assigned_category = "inactive"

[[record]]
compound = "N#Cc1ccc(C(=O)OCCCc2cc3ccccc3c(=O)o2)cc1"
assigned_category = "inactive"

[[record]]
compound = "CC1(C)Cc2c(sc3ncnc(NN)c23)CO1"
assigned_category = "inactive"

[[record]]
compound = "O=C(OCCc1cc2ccccc2c(=O)o1)c1cccc(Br)c1"
assigned_category = "active"

[[record]]
compound = "CCc1cccc(NC(=O)NC(=O)Cn2nnc(C(=O)OC)c2C(=O)OC)c1"
assigned_category = "inactive"

[[record]]
compound = "COc1ccc(OCC(=O)Nc2ccc(NC(=O)c3cccs3)c(OC)c2)cc1"
assigned_category = "inactive"

[[record]]
compound = "Cc1ccccc1OCc1ccc(C(=O)N2CC(C)OC(C)C2)o1 (stereo not drawn)"
assigned_category = "active"

[[record]]
compound = "CCCCN1C(=O)C(=O)N(CC(=O)Nc2cc(OCC)c(N3CCOCC3)cc2OCC)C1=O"
assigned_category = "inactive"

[[record]]
compound = "CC1CN(C(=O)c2ccc(COc3ccccc3Br)o2)CC(C)O1 (stereo not drawn)"
assigned_category = "inactive"

[[record]]
compound = "NC(=O)C1CCN(CC(O)CSc2ccccc2)CC1 (stereo not drawn)"
assigned_category = "inactive"

[[record]]
compound = "O=C(NNC(=O)c1cnccc1C(F)(F)F)c1ccccc1"
assigned_category = "inactive"

[[record]]
compound = "COc1cc(NC(=O)c2ccccc2)c(OC)cc1NC(C)=O"
assigned_category = "inactive"

[[record]]
compound = "Fc1cccc(Nc2ncnc3[nH]ncc23)c1"
assigned_category = "inactive"

[[record]]
compound = "CC1(C)Cc2c(sc(NC(=O)C(=O)NCC3CCCO3)c2C(N)=O)CO1 (stereo not drawn)"
assigned_category = "inactive"

[[record]]
compound = "CCCn1c(O)c(N=NC(=O)CNC(=O)c2cccnc2)c2ccccc21"
assigned_category = "inactive"

[[record]]
compound = "COc1ccccc1NC(=O)c1ccc2snnc2c1"
assigned_category = "inactive"

